Reference for the values: PubChem BioAssay (NCI)

# Assay Method Text: NCI Yeast Anticancer Drug Screen. Data for the cln2 rad14 strain (AID 165);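 also: 0% = growth equal to vehicle treated cultures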
# Test Conditions: S. cerevisiae cln2 rad14 strain, at 50.0 µM (retest, dose inferred, filed as 5.0)
Compounds without any hit were thinned out: in the full panel of roughly 79,000, 15% have a hit. The source made the active and inactive calls. Rule as the data show it: active = growth inhibition above about 70%; inactive = the rest.
Classes used: label 1 (active), label 0 (inactive)

| Compound | Class Label |
| --- | --- |
| CC(=O)Nc1ccc(N=C2c3ccccc3-c3ccc(NC(C)=O)cc32)cc1 | label 0 |
| Cc1cc(=O)oc2c3c(ccc12)OC(c1ccc(Br)cc1)CC3=O (configuration not stated) | label 0 |
| CCN(CC)CCNc1c(OC)cc(C)c2sc3ccccc3c(=O)c12 | label 0 |
| Clc1ccc(CSCCc2ccncc2)cc1Cl | label 1 |
| CCCCCCCCCCCCCCCCCCNC(=S)/N=C/c1c(O)cc(C)oc1=O | label 0 |
| O=C(Nc1ccccc1)C(F)(F)C(F)(F)C(F)(F)F | label 0 |
| CCCCCCCCCCCCCCCCCCOS(=O)(=O)O (tested in a mixture with another compound) | label 0 |
| CC(=O)OCC1OC(c2cccc3c2c2ccccc2n3S(=O)(=O)c2ccccc2)C(O)C1O (configuration not stated) | label 1 |
| CC(C)C1=CC(=O)C2=C(CCC3C(C)(C(=O)O)CCC[C@]23C)C1=O (some centres not stated) | label 1 |
| CCN(CC)CCNc1ccc(C)c2sc3ccc(OC)cc3c(=O)c12 | label 1 |
| CCN(CC)CCC(=O)/C=C/c1ccc(Cl)c(Cl)c1 | label 1 |
| Cc1ccc(C)c2[nH]c(-c3ccccc3)cc12 | label 1 |
| CN=C1NS(=O)(=O)c2ccccc21 | label 0 |
| CN(NC(=O)CC(=O)NN(C)C(=S)c1ccccc1)C(=S)c1ccccc1 | label 0 |
| CS(C)=O.[Cl-].[Cl-].[NH-]CC(O)CN(Cc1ccccc1)CC(O)CN.[Pt] (configuration not stated) | label 0 |
| CNC(=O)OC1/C(C)=C\C(C)C(O)C(OC)CC(C)CC2=C(OC)C(=O)C=C(C2=O)N(C)C(=O)/C(C)=C/C=C\C1OC (configuration not stated) | label 0 |
| BrC(Br)([P+](c1ccccc1)(c1ccccc1)c1ccccc1)[P+](c1ccccc1)(c1ccccc1)c1ccccc1 | label 0 |
| CN(C)C(=O)/N=c1\ss/c(=N\C(=S)N(C)C)n1-c1ccccc1 | label 0 |
| O=C(CC(O)(C(F)(F)F)C(F)(F)F)C(c1ccccc1)C(O)(C(F)(F)F)C(F)(F)F (configuration not stated) | label 1 |
| O=C(CSc1nnc(Cc2ccccc2)o1)Nc1cccc(Cl)c1 | label 1 |
| CN(C)C(=O)c1ccccc1SC(=S)NCc1ccccc1 | label 1 |
| CN(C)c1nc(-c2ccccc2)cc(-c2ccc(O)cc2)n1 | label 0 |
| CCC(Cl)COP(=O)(OC(c1ccc(Cl)c(Cl)c1)P(=O)(OCC(Cl)CC)OCC(Cl)CC)C(CC)CCl (configuration not stated) | label 0 |
| C/C=C/C(=O)N1c2ccccc2CC1c1c(C)[nH]c2ccccc12 (configuration not stated) | label 1 |
| CN(C)CCC(=O)c1ccc2c(ccc3ccccc32)c1 | label 0 |
| CCCCCCCCc1ccc2c3ccccc3c3ccccc3c2c1 | label 0 |
| S=c1sc2ccccc2n1CNc1ccccc1 | label 0 |
| O=C1C=CC(=O)c2nc3ccccc3nc21 | label 1 |
| O=c1ssc(=Nc2ccc(Cl)cc2)n1-c1ccc(Cl)cc1 | label 1 |
| C=C(Br)CN(C)CC(=C)Br | label 0 |
| Cc1c(CNc2ccc(Cl)c(Cl)c2Cl)cnc2nc(N)nc(N)c12 | label 0 |
| O=C(c1cccnc1)N(C1CCCCC1)C1CCCCC1 | label 0 |
| O=C(/C(=C\I)c1ccccc1)c1ccccc1 | label 0 |
| O=C1CCC(O)N1CN1C(=O)CCC1O (configuration not stated) | label 0 |
| CNC(=O)c1cccc2c(Nc3ccc(NS(C)(=O)=O)cc3OC)c3cccc(C)c3nc12 | label 0 |
| CC1(C)CC(=O)C(/C=N/c2nc(-c3cccc([N+](=O)[O-])c3)cs2)=C(O)C1 | label 1 |
| COc1ccc(-c2cc3ccccc3c(=O)n2Cc2ccccc2)cc1 | label 0 |

---

# Assay Method Text: NCI Yeast Anticancer Drug Screen. Data for the mec2-1 strain (AID 157)
# Test Conditions: S. cerevisiae mec2-1 strain, at 50.0 µM (retest, dose inferred, filed as 5.0)
This is part of a sample that, as a whole, favours compounds with a hit. Of some 79,000 tested, about 15% had one in any assay. Calls of active or inactive are those of the source. Cut-off read from the data, not from the text of the source: active = growth inhibition above about 70%; inactive = the rest.
Possible outcomes: yes (1) = active, no (0) = inactive

| Molecule | Class Label |
| --- | --- |
| COC12C=CC(CC1)c1c2c(O)c2ncccc2c1O (centres undefined) | no (0) |
| CCCCOC(=O)c1cnc[nH]c1=O | no (0) |
| Cc1[nH]c2c(C)c3c([nH]c4ccc(Cl)cc43)c(C)c2c(=O)c1C | no (0) |
| CC(C)(c1ccc(OC#N)cc1)c1ccc(OC#N)cc1 | yes (1) |
| CC1CCC(NCCOC(=O)c2ccc([N+](=O)[O-])cc2)CC1 (centres undefined) | no (0) |
| NC(CCl)=NCC1C2CC3CC(C2)CC1C3 (centres undefined) | yes (1) |
| Cc1ccc2nc(-c3ccc(N)cc3)sc2c1 | no (0) |
| CC(OC(=O)Nc1cccc(Cl)c1)c1ccccc1 (centres undefined) | yes (1) |
| CN1CCC(CCC(=O)OC(C)(C)C)(CN2c3ccccc3Sc3ccccc32)C1 (centres undefined) | yes (1) |
| FC(F)(F)c1ccc(Nc2ccc(C(F)(F)F)cc2)cc1 | yes (1) |
| CNC(=O)OC1/C(C)=C\C(C)C(O)C(OC)CC(C)CC2=C(OC)C(=O)C=C(C2=O)N(C)C(=O)/C(C)=C/C=C\C1OC (centres undefined) | yes (1) |
| Cc1ccc(C(=O)CC(N)C(=O)O)cc1 (centres undefined) | no (0) |
| CC(C)(C)C(=O)OC12/C(=N/O)CCCCCC1c1ccccc12 (centres undefined) | yes (1) |
| CCCCc1ccc2c(c1)Nc1cc3ccccc3cc1N2 | no (0) |

---

# Assay Method Text: NCI Yeast Anticancer Drug Screen. Data for the mec2-1 strain (AID 157)
# Test Conditions: S. cerevisiae mec2-1 strain, at 5.0 µM (retest, dose inferred, filed as 0.5)
Compounds without any hit were thinned out: in the full panel of roughly 79,000, 15% have a hit. The source made the active and inactive calls. Rule as the data show it: active = growth inhibition above about 70%; inactive = the rest.
Outcomes: TRUE (active), FALSE (inactive)

| Smiles | Class Label |
| --- | --- |
| O=C(NCCN1CCCC1)c1cn2c(ccc3sc4ccccc4c(=O)c32)n1 | FALSE |
| COc1cccc(=O)cc1 | FALSE |
| O=C(O)/C=C/C(=O)c1ccccc1 | FALSE |
| COC(=O)Oc1nn(C(=O)OC)c(=O)c2ccccc12 | FALSE |
| CCCCc1c(O)c(N=NC(=O)C[n+]2ccccc2)c2ccccc2c1O | FALSE |
| OC1CCN(c2c3ccccc3nc3ccccc23)CC1 | FALSE |
| O=Cc1ccc([N+](=O)[O-])o1 | FALSE |
| CC#CCCCCOC(=O)c1cc([N+](=O)[O-])cc([N+](=O)[O-])c1 | TRUE |

---

# Assay Method Text: NCI Yeast Anticancer Drug Screen. Data for the bub3 strain (AID 167)
# Test Conditions: S. cerevisiae bub3 mutant strain, at 50.0 µM
Compounds without any hit were thinned out: in the full panel of roughly 79,000, 15% have a hit. Calls of active or inactive are those of the source. No stated cut-off is given here; in the data, active means growth inhibition above about 70%; inactive means the rest.
Classes used: active, inactive

| Molecule | Class Label |
| --- | --- |
| CN=C(N)NN=C(c1ccc(Cl)cc1)c1ccc(Cl)cc1 | active |
| CCOC(=O)C1=C(c2ccccc2)SC(c2ccccc2)N(C(C)C)C1=O (stereo not drawn) | active |
| Cc1cccc(N=Nc2ccc(O)cc2)c1 | active |
| Cc1cnc2c(c1C)C(=O)c1ccccc1C2=O | active |
| CCCCCCCCCCSC(=NCC)NCC | inactive |
| CC1C=CC(C)C2C(=O)C3C(C)C=CC(C)C3C(=O)C12 (stereo not drawn) | inactive |
| Cc1c(Cl)ccc(O)c1[N+](=O)[O-] | active |
| COc1ccc(NC(=O)Nc2ccc(Cl)cc2)nn1 | inactive |
| Clc1ccc(C2=CCCc3ccccc32)cc1 | active |
| CCCCC(CSC#N)SC#N (stereo not drawn) | active |
| COc1ccc(C2SC(N)=Nc3c2c(C)nn3C(=O)c2ccccc2O)cc1OC (stereo not drawn) | active |
| CCOc1c(N=Nc2ccccc2OC)c(-c2ccccc2)nn1C(N)=S | inactive |
| CCC(C)COC(=O)c1ccc([N+](=O)[O-])cc1 (stereo not drawn) | active |
| CCOC(=O)c1[nH]cc(C)c1-c1ccc2c(-c3ccccc3)nc3ccccc3n12 | inactive |
| CNC(=O)c1cccc2c(Nc3ccc(NS(C)(=O)=O)cc3OC)c3cccc(C)c3nc12 | inactive |
| CCOC(=O)C(=O)C1CCCCC1=O (stereo not drawn) | active |
| c1ccc(N=Nc2n[nH]c3ccccc23)cc1 | active |
| CC(=O)OC1COC(n2ccc3cc(Br)c([N+](=O)[O-])cc32)C(OC(C)=O)C1OC(C)=O (stereo not drawn) | active |
| CC1CCN(CCOC(=O)C(c2ccccc2)C2C=CCCC2)C1 (stereo not drawn) | inactive |
| CC(=O)NC(C)(C)C1CCC(C)=C(c2ccccc2)C1 (stereo not drawn) | inactive |
| N#CCc1ccccc1-c1cccc2ccccc12 | inactive |
| Fc1ccc(NC(=S)SCc2ccccc2)cc1F | active |
| CCC(=O)NC1=C(Cl)C(=O)c2ccccc2C1=O | active |
| O=C(O)c1ccccc1NC(c1ccccc1)c1ccc2cccnc2c1O (stereo not drawn) | active |
| [Cl][Pt+2][Cl].[NH-]CC1(C[NH-])CCCC1 | inactive |
| COc1ccc(-n2cc(-c3ccc(Cl)cc3)c3c(N)ncnc32)cc1 | active |
| Cc1cccc2c1Oc1ccccc1C2N1C(=O)/C(=C/c2cccs2)SC1=S (stereo not drawn) | inactive |
| CCN(CC)C(=S)Nc1ccc(Cl)cc1 | active |
| CCCCCCCCCCCCCCCCCCOP(=O)([O-])OCC[N+](C)(C)C | active |
| CC(C)N(CC(=O)c1ccc2cc(Cl)c3ccccc3c2c1)C(C)C | active |
| Nc1ccc(-c2nc3ccccc3s2)cc1 | active |
| COc1ccc2c(c1)CCCN2S(=O)(=O)c1ccc(N)cc1 | inactive |
| C=CC[P+](CC[P+](CC=C)(c1ccccc1)c1ccccc1)(c1ccccc1)c1ccccc1 | inactive |
| O=C1C(C=NC(=S)c2ccccc2)=C(O)c2ccccc21 | inactive |
| CCc1cccc(CC)c1NC(=S)N/C=C(\C#N)C(=O)c1ccc2ccccc2c1 | inactive |
| CNCCN[C@@H]1c2cc3c(cc2[C@@H](c2cc(OC)c(O)c(OC)c2)[C@H]2C(=O)OC[C@@H]21)OCO3 | active |
| N#C/C(=C/c1ccccc1B(O)O)C(=O)O | inactive |
| CCN(CC)CCCC(=O)Nc1cc(OC)cc2cccnc12 | inactive |
